# STUDY TARGET: Nuclear receptor subfamily 1 group I member 2 (Rattus norvegicus)
# ASSAY DETAILS: qHTS assay for small molecule activators of the rat pregnane X receptor (rPXR) signaling pathway (AID 651751); further: 0% is about no effect
# CONDITION SUMMARY: rPXR reporter cells, luciferase (One-Glo), 24 h
RESULT TYPE: max response (%)
Report the value in % with no unit label.

Known max response results, listed for orientation:
1) Cc1ccc(C)c([N+](=O)[O-])c1 :: -1.78
2) FC(F)(F)c1cccc(Cl)c1 :: -6.22
3) CN(C)CCCCl :: 3.08

Query: What does the record list as max response for O=C(O[C@@H](C(=O)O)[C@@H](OC(=O)c1ccccc1)C(=O)O)c1ccccc1 ?
Reply: 4.96

Query: What does the record list as max response for Cc1nc2ccc(Cl)cc2[nH]1 ?
Reply: -1.68

----------
# STUDY TARGET: Glucocorticoid receptor (Homo sapiens) (UniProt P04150)
# Sequence (P04150 whole entry, looked up): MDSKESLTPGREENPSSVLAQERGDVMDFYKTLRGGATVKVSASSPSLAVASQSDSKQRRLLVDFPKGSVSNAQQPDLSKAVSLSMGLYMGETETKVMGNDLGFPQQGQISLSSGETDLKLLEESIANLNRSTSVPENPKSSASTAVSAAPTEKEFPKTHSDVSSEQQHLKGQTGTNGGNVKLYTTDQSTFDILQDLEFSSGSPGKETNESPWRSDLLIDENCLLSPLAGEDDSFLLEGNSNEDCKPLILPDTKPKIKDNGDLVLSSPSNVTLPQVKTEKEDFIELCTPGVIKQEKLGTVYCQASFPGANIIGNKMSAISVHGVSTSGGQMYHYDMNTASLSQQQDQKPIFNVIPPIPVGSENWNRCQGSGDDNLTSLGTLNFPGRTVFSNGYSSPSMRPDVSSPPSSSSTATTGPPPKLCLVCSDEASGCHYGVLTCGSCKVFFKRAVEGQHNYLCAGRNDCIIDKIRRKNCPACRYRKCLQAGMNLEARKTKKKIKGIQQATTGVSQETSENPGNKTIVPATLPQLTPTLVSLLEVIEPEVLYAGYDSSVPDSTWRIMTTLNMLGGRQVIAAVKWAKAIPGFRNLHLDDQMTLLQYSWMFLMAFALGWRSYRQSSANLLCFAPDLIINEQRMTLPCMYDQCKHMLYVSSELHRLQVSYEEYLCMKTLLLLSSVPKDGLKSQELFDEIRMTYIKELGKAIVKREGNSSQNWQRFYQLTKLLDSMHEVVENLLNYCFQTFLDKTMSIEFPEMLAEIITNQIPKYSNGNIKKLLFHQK
# ASSAY DETAILS: qHTS assay for small molecule agonists of glucocorticoid receptor signaling (AID 588532);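 further: 100% = dexamethasone at 0.1 µM and 0% = DMSO only wells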
# CONDITION SUMMARY: HeLa MMTV-bla, beta-lactamase ratio, agonist, 18 h; stronger effect = higher value; percent of dexamethasone control, DMSO zero
Inconclusive results are not listed.
Listing: activation of selected compounds
Report the value in % with no unit label.

Known activation results, listed for orientation:
1. CC(C)(O)CCC(C)(C)O :: -3.83
2. CC(=O)OC(C)C :: 0.131

Query: What does the record list as activation for Nc1ccc(Cl)cc1[N+](=O)[O-] ?
Reply: -4.92

Query: What does the record list as activation for ICCc1ccccc1 ?
Reply: -2.34

Query: What does the record list as activation for Oc1cccc(Nc2ccccc2)c1 ?
Reply: -7.34

Query: What does the record list as activation for O=C(O)CCSSCCC(=O)O ?
Reply: -5.98

Query: What does the record list as activation for CC(=O)C1(C)CC2=C(CCCC2(C)C)CC1C (stereo not given) ?
Reply: -5.53

----------
Listing: activation of selected molecules
# ASSAY DETAILS: qHTS assay for small molecule activators of the p53 signaling pathway (AID 651743); further: series mostly up to about 92 µM; % of control where 0% means no effect
# CONDITION SUMMARY: HCT-116 p53RE-bla, beta-lactamase FRET ratio, 16 h; stronger effect = higher value
Inconclusive results are not listed.
Report the value in % with no unit label.

Known activation results, listed for orientation:
1. CCCC(Cl)CCCC(Cl)CCC(Cl)CCC(Cl)CCC(Cl)CCCC(Cl)CCC (configuration not stated) :: 0.55
2. CC(=O)CC(C)C :: -2.45
3. ICCc1ccccc1 :: -3.45
4. CO[Si](CCCNCCC[Si](OC)(OC)OC)(OC)OC :: 0.23
5. CC(C)=CCl :: -2.89
6. CCCCCCO :: -2.65
7. Cc1cccc2ccccc12 :: -1.93
8. Cc1ccc(CO)cc1 :: -4.79

Query: What does the record list as activation for O=C(O)c1ccccc1[N+](=O)[O-] ?
Reply: 2

Query: What does the record list as activation for CCC(C)O (configuration not stated) ?
Reply: -1.8

Query: What does the record list as activation for O=C(O)CNC(=O)c1ccc([N+](=O)[O-])cc1 ?
Reply: -1.97

Query: What does the record list as activation for Clc1ccccn1 ?
Reply: -3.75
